Recorded values, source PubChem BioAssay AID1159580.

- procedure_text: chemical genetic growth profiling, strain panel (AID 1159580);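 note: tested at 20 µM; growth read once vehicle control cultures reached saturation at 30 °C; 1 = growth at the plate median or of vehicle wells; lower values mean less growth of the strain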
- measurement_parameters: S. cerevisiae deletion strains, growth OD, locus YAL026C, strain drs2, hits give low values
The campaign covered roughly 5,500 compounds. About 2,000 (36%) were called active. Another 18% or so got no clear call; they are omitted. The list shows a part of the results.
measure: normalized growth
Give bare numbers.

A selection of reference data follows.
compound | normalized growth
COc1ccc(-c2cc(=O)c3ccccc3o2)cc1OC | 0.838
NS(=O)(=O)c1cc2c(cc1C(F)(F)F)NCNS2(=O)=O | 1

Batch of 2 compounds: report normalized growth for each.
1. CCCN1C[C@H](CSC)C[C@@H]2c3cccc4[nH]cc(c34)C[C@H]21
2. ClC(Cl)=C(c1ccc(Cl)cc1)c1ccc(Cl)cc1

[1.02, 0.999]

Batch of 3 compounds: report normalized growth for each.
1. COc1cc2c3cc1Oc1cc(ccc1O)C[C@@H]1c4c(cc(OC)c(O)c4Oc4ccc(cc4)C[C@@H]3N(C)CC2)CC[N+]1(C)C
2. C=C1C(N)CC2CC1C2(C)C (stereo not given)
3. COc1cc([C@@H]2c3cc4c(cc3[C@H](OC(C)=O)[C@H]3COC(=O)[C@H]23)OCO4)cc(OC)c1OC

1. 0.976
2. 1.01
3. 1.01

Batch of 3 compounds: report normalized growth for each.
1. CC(C)Oc1ccc2c(=O)cc(-c3ccccc3)oc2c1
2. CC1(C)O[C@@H]2CC3C4CCC5=CC(=O)C=C[C@]5(C)[C@@]4(F)[C@@H](O)C[C@]3(C)[C@]2(C(=O)CO)O1 (stereo not given in full)
3. CCOC(=O)C1C(C=C(C)C)C1(C)C (stereo not given)

[0.934, 1, 1.01]
